Quick reference: folding stability dG unfold of the listed items.
- MEASUREMENT_DESCRIPTION: folding stability dG unfold from chymotrypsin proteolysis; higher = more stable

Previously resolved entries follow.
SAGGSAGGSAGGGYVTLSHEIPPDQSVEITAPDGKKAKQERDPATKTVTYKISPELYKLLSAGGSAGGSAGG [r7_155_JUSTAS]: -0.855 kcal/mol
SAGGSAGGMKVYEIEVPPSSGLTPEEIRARVREEIEASNNAPVEVTVEVDPNGRLTVTIKITPLSAGGSAGG [r6_819_JUSTAS]: 1.28 kcal/mol
SAGGSAGGSAGKKITIELPEGVKVYKLPNENDYIIVEDEKTKEKYIFKIKDGKVELIEKLSAGGSAGGSAGG [r11_1036_TrROS_Hall]: 1.86 kcal/mol

# ---- query sequence ----
Query :: Quick one: folding stability dG unfold of SAGGSAGGSAGPIVYPYGKYLVVYNPETGALVVVELDPDGKVKKVVVFGKDGPLVELDDASAGGSAGGSAGG [r17_385_TrMRF] ?
Result :: 3.37 kcal/mol

====

- MEASUREMENT_DESCRIPTION: folding stability dG unfold from chymotrypsin proteolysis; higher = more stable
Quick reference: folding stability dG unfold of the listed items.
Respond numerically; units are kcal/mol and should not be typed.

Query :: Quick one: folding stability dG unfold of SAGGSMKEIVELGEVEFEEDSVALKVKFKVKLVFYDPETGEKVEEREEELEVYFGGDTLEFSPVEGSAGGSA [r2_271_TrMRF] ?
Result :: 2.37

Query :: What about this sequence? SAGELTAEEIAERLRKLLEELGIEEVEVEVEEVEVEEEEEPVEEEEEEELSEEERERLRRERLEEEGLLSAG [r5_9_TrROS_Hall]
Result :: 2.1

Query :: What about this sequence? SAGGSAGVSTSKGSSVTTLKIDYKDDVVIKYSYNPSTGTVYTTVIDPETGNPVTVETYSVSPDVPLSAGGSA [r15_425_JUSTAS]
Result :: 1.26

Query :: What about this sequence? SPVKIRIIVPKGMDPEMANFIVKEIMKHLGLPPGAPVEILPWEDLQKNPDVHQALEEAEKEGADIVILIRSA [r9_1147_TrROS]
Result :: 4.16

Query :: What about this sequence? SAGPKELAKQIKEIARELARAFHPNGQPMKMEVEIEPVSIDDENGWVRLKVKIRMPNRPVKFNITIPLKSAG [r5_53_TrROS]
Result :: 3.19

Query :: What about this sequence? SAGGSDRVLVPAGPSDYDVLVVVTPGPGDLVGVDALVIHPDGTPLAVRGVLDPTTGGISPVAVDPLSAGGSA [r2_402_TrMRF]
Result :: 0.243

Query :: What about this sequence? GMMPEVKEYEVVVEVSLSDPSFASMTPEELAERAVAEVAAKPDFDPVEVEILSVKELPDGTYVVKVRITVRS [r1_484_JUSTAS]
Result :: 3.15

Query :: What about this sequence? SMPVTITRDFDIPLATLSVEEVKAAIEEALKAEGLNVVEPKLDEKLVKELEEAPPSSTLPVKVTVLVEPASA [r9_1163_JUSTAS]
Result :: 0.715

Query :: What about this sequence? SAGGSAMTPEEARARAEAIAEELAAEARAAGRAAEVTVEVTELPPELYRFTITFPGRTREVLLPVESAGGSA [r15_432_JUSTAS]
Result :: -0.262

Query :: What about this sequence? SAGGSAGGSKPIPIKIKARNKDDGKKREEDIQIPPEALKNGKFDKEQIKKELRKLGPRVEIEISAGGSAGGS [r20_221_TrROS]
Result :: -0.216

Query :: What about this sequence? SEAEIKIKEVDENGYLVLEIKVPKEEVEKLREKLKELFPNAEIVEVKYDEETGEVTIIVRLPDGKLYEFKSA [r9_1164_TrROS_Hall]
Result :: 1.05

Query :: What about this sequence? SAGGSAGGSAKPKITVTVEEVTNEDGSTYYRATARIEETGRTIEIYVRRDDLGKPVAIKITSAGGSAGGSAG [r3_432_TrROS_Hall]
Result :: 2.4

Query :: What about this sequence? SAGGSAGGSGMSSTSTTTVEIEKDPSTGKVLKKTVTSPTTTLAPGGEWTTTVSTSTEEISPDLSAGGSAGGS [r12_629_JUSTAS]
Result :: -0.101

Query :: What about this sequence? SAGGSAGGSAGGMGPPPIETIVIEKPLSEEEYEALKKAYPDKKVTVSEIPGTPNKIATIESAGGSAGGSAGG [r17_254_JUSTAS]
Result :: -0.192

Query :: What about this sequence? SAGGSAGGSAGRMLVIEIEMPGRKRTFMIPTPDGPPIKAEELADKLGFDNVTVKIHPIDDSAGGSAGGSAGG [r11_219_TrROS]
Result :: 0.261

Query :: What about this sequence? SAGGSAGGEIPPNIKKIETLPDDGWLMVKVDSPKDIREFFEDHGWEIKDVEEEGNTIHIPIKPKSAGGSAGG [r6_381_TrROS]
Result :: 0.893

====

- MEASUREMENT_DESCRIPTION: folding stability dG unfold (combined trypsin and chymotrypsin); higher = more stable
ENDPOINT: folding stability dG unfold (kJ/mol)
Respond numerically; units are kJ/mol and should not be typed.

Previously resolved entries follow.
SAGGSAGGSAGGMIVTLPKTGEVLLVPEEEIEAFLAALPESFPKEDVEVYEYSPEEEPLSAGGSAGGSAGGS [r10_13_JUSTAS]: 1.06
SAGGSAGGSNTITVFMKVDDPEDALDEISEEIRDLFPPGIEVEIQPEQNEDKRGWVQVTIEFKSAGGSAGGS [r20_122_TrROS]: 4.27
SAGGSAGGSAGLEVPPGVPVKIPVVYVDKENDYVIVTELTITPDSGEIFYDPKIIPKKELSAGGSAGGSAGG [r11_468_TrMRF]: 2.72

Query :: Quick one: folding stability dG unfold of SAGGGSSSTTLTLREVTEVIVIPVPPEEEELAEELAKKYESQGIKVELERLPDGTWKLTLTYYRGVSLSAGG [r13_702_JUSTAS] ?
Result :: 4.3

Query :: What about this sequence? SAGGSAGGSAGVRIPPGYLVRIKFPGNGEREIPIDTPEIEIPGIENVTIEVYPLKKGEPISAGGSAGGSAGG [r11_43_TrROS]
Result :: 0.698

Query :: What about this sequence? SAGGGSSYTLLSESTSTDPATGATLTTTTYRAPDGTIYYDSTLTAPDGTTTGTATAVDPDGTPVTIALSAGG [r13_573_JUSTAS]
Result :: 5.88

Query :: What about this sequence? SAGEKTVKIKLPNTKTITVKVKKNEKKILYLPNGEKILITDVKKGKVSLKKGITYVKDKNGKWYPLKYKSAG [r5_417_TrMRF]
Result :: 5.75

Query :: What about this sequence? GSLVTVFPFPENGKTVEVVVPESVGTPLSEAEIRALLLEAHPDVPAAALPAEEAAEILQATPGVEAARVVAS [r1_463_JUSTAS]
Result :: -1.26

Query :: What about this sequence? SAGGSSYIVKATPAGGPSFEAEATLTSVSSEGDNFTANVEVTFDGKPVTLTFDGDKVGPVVIEPPESAGGSA [r2_319_TrMRF]
Result :: -0.218

Query :: What about this sequence? SAGGDLKIEIEPYRMGDYPMYEVKIEDPDGKDITLWMNSNNGQMMVFYPNGKPRRVDSAEDVLEALKSAGGS [r8_168_TrROS]
Result :: 0.625

Query :: What about this sequence? SPLELPSDEEITVNAEVLILPYNPETGEIEDEIPIPLPVKIKVKKDGSVEIEIDIPDSIPENVPIVLLLKSA [r9_90_TrMRF]
Result :: 6.36

Query :: What about this sequence? SAGGSLSEIIEKAKELAKKKYPNKGVTVPVEIKYKDPVKKKWIKVKIEITFDKNGNIIKITIKEIKLESAGG [r13_770_JUSTAS]
Result :: 16.3

Query :: What about this sequence? SMTLEEAKEIAEKNPDIPVALIFPGKKLIYIYHPKSGKWEVKPVTSIEEAIEALEKEDIDAIFIVPAELDSA [r9_775_TrMRF]
Result :: 17

Query :: What about this sequence? MMLIIKVKNKKTGKTETIKIDMSVEEIKNAIKELKKKNPNAKVTIIGVKTEEVRKALKEAGIEKIEVKPLPS [r1_114_TrROS_Hall]
Result :: 14.7

Query :: What about this sequence? SAGGSAGGSMIKIKVKSKEDVEALIKELEKAGFKVKKVEEVDGKVYFTLENGEKIEIEVVPPESAGGSAGGS [r20_93_TrROS_Hall]
Result :: 21.1

Query :: What about this sequence? SAGLGLEKAKKLAEKIAETLKKELEKELGIPADQIKVEAKVEKLPDGSYKITVKINLKDIPIEKVFYVDSAG [r14_226_TrMRF]
Result :: 12
